Reference for the values: PubChem BioAssay (NCATS)

compounds and their reported max response
- System: HaCat
- Method: Cytotoxic Profiling of Annotated Libraries Using Quantitative High-Throughput Screening (AID 1296008); note: % is set by controls: 0 for no effect and ±100 for the full control effect; nearly all actives have a fitted effect of over 60% in size
- Assay context: Five cell lines viability, CellTiter-Glo ATP luminescence, 48-72 h; active compounds read low
Results filed as inconclusive are left out.
Field format: number, assumed %, no unit text.

Please review the following examples before continuing.
INSERT INTO results (compound, recorded_value) VALUES
  ('CCC(CC)CC1(C(=O)Nc2ccccc2SC(=O)C(C)C)CCCCC1', -14),
  ('C=CC(C)(CCC=C(C)C)O[C@@H]1O[C@H](CO)[C@@H](O)[C@H](O)[C@H]1O (some centres undefined)', -2.03);

Q: For C/C=C/C=C/C=C/C(=O)O[C@@H]1C=C(CO)[C@](O)(CO)[C@@]2(C)CCCC(C)(C)[C@H]12 , what is its reported max response?
Ans: -1.12

Q: Same thing, different compound: C=CC(C)(O)CCC1C(C)(O)CCC2C(C)(C)CCCC21C (centres undefined)
Ans: 3.9

Q: # repeat for Cc1occc1C(=O)n1ccnc1
Ans: 4.32

Q: Another compound to check: C[C@@H]1C(=O)O[C@H](C)[C@H]1C[C@@H](O)[C@](C)(O)[C@H]1CC[C@@]2(O)C3=CC(=O)[C@@H]4C[C@@H](O)[C@@H](O)C[C@]4(C)C3CC[C@]12C (some centres undefined)
Ans: -25

Q: COc1cc(/C=C/C(=O)O[C@@H]2C[C@@](O)(C(=O)O)C[C@@H](O)[C@@H]2O)ccc1O ?
Ans: -12

Q: One more compound: C[C@@H]1C[C@H]2OC(=O)[C@@]3(C)CCC[C@](C)(C23)[C@@]1(O)CCC1=CC(=O)OC1O (some centres undefined)
Ans: 3.15

Q: Same read-out for O=S(=O)(O)c1ccc(Nc2ncnc3c2ncn3[C@@H]2O[C@H](CO)[C@@H](O)[C@H]2O)cc1 ?
Ans: -25.7

====

- Method: Primary fluorescence-based thiol-reactive (MSTI) qHTS assay for identification of artifact compounds. (AID 1845221); note: nearly all actives have a fitted effect of over 65% in size
- Assay context: MSTI thiol-reactivity probe, 1 h; series mostly up to 53.8 µM
Records with an inconclusive call do not appear. Activity calls are given as the source filed them. Calls come from the whole dose curve; as a rule, active = well fitted inhibition curve with a large enough effect; inconclusive = small, poorly fitted or top-dose-only effect; inactive = no such curve, though single readings can be large or run the other way.
Respond with a class label; see active, inactive

Observe how each entry below is paired with its result.
INSERT INTO measurements (compound, label_value) VALUES
  ('CC1(C)CC[C@]2(C(=O)O[C@@H]3O[C@H](CO)[C@@H](O)[C@H](O)[C@H]3O)[C@H](O)C[C@]3(C)C(=CCC4[C@@]5(C)CC[C@H](O[C@@H]6OC[C@@H](O)[C@H](O)[C@H]6O)[C@@](C)(C(=O)O)C5CC[C@]43C)[C@@H]2C1 (stereo partly drawn)', 'inactive'),
  ('CN(C)CCC[C@]1(c2ccc(F)cc2)OCc2cc(C#N)ccc21', 'inactive'),
  ('O=C(OCC1=CC(Cl)C(O)C(OC(=O)c2ccccc2)C1O)c1ccccc1 (stereo not drawn)', 'inactive');

Q: Outcome logged for O=C(OC[C@H]1O[C@@H](Oc2ccccc2CO)[C@H](O)[C@@H](O)[C@@H]1O)c1ccccc1 in this assay:
Ans: active

Q: Subsequent entry: C=CC(C)(O)CCC1C(C)(O)CCC2C(C)(C)CCCC21C (stereo not drawn)
Ans: inactive

Q: Moving on to COc1cc(C2Oc3c(OC)cc(CCCO)cc3C2CO)ccc1O (stereo not drawn)
Ans: active

Q: Same lookup for CC(C)[C@@](O)(c1ccc2cc(OC(F)F)c(OC(F)F)cc2c1)c1cn[nH]n1 , please.
Ans: inactive

Q: Similarly, CC(C)=C1C[C@@]2(C)C(=CC1=O)CC[C@@H](O)[C@@H]2C ?
Ans: inactive

====

- Test system: CAOV3
- Method: Primary qHTS to identify gynecologic anti-cancer compounds using libraries of approved drugs and bioactive compounds (AID 1345084); note: % is set by controls: 0 for no effect and ±100 for the full control effect; nearly all actives have a fitted effect of over 55% in size
- Assay context: Gynecologic cancer cell panel viability, ATPlite luminescence, 48 h; series mostly up to 57.5 µM
Inconclusive results are not listed. Activity calls are given as the source filed them. Calls follow the shape of the dose curve; as a rule, active = well fitted cell-killing curve with a large enough effect; inconclusive = small, poorly fitted or top-dose-only effect, or effect the other way; inactive = flat fitted curve, though single readings scatter.
Property: activity change, negative = cytotoxicity

Some solved entries appear below for comparison.
INSERT INTO measurements (compound, property, recorded_value) VALUES
  ('CCCO[C@@H]1O[C@H](CO)[C@@H](O)[C@H](O)[C@H]1O[C@@H]1OC[C@@H](O)[C@H](O)[C@H]1O', 'activity change, negative = cytotoxicity', 'inactive'),
  ('C=C(COC(=O)C(C)C)C1Oc2cc(C(C)=O)ccc2C1OC(=O)C(C)C (stereo not drawn)', 'activity change, negative = cytotoxicity', 'inactive'),
  ('Cc1occc(=O)c1O[C@@H]1O[C@H](CO)[C@@H](O)[C@H](O)[C@H]1O', 'activity change, negative = cytotoxicity', 'inactive'),
  ('CC1=CC(=O)C(=C(C)C)CC2C(C)(O)CCC12O (stereo not drawn)', 'activity change, negative = cytotoxicity', 'inactive'),
  ('C=C1CC[C@@H]2C(C)(C)CCC[C@@]2(C)[C@@H]1CC/C(=C/C(=O)OC)COC(C)=O', 'activity change, negative = cytotoxicity', 'inactive'),
  ('CC(O)/C=C/C1(O)C(C)C(O)C(O[C@@H]2O[C@H](CO)[C@@H](O)[C@H](O)[C@H]2O)CC1(C)C (stereo partly drawn)', 'activity change, negative = cytotoxicity', 'inactive'),
  ('COC(=O)C1=CO[C@@H](O[C@@H]2O[C@H](CO)[C@@H](O)[C@H](O)[C@H]2O)[C@@H]2[C@@H](CO)[C@@H](O)C(O)[C@H]12 (stereo partly drawn)', 'activity change, negative = cytotoxicity', 'inactive'),
  ('CC(=O)OC1CC2C(C)(C)C(=O)C=CC2(C)C2CC(=O)C3=C(CCC3C3=CC(O)OC3=O)C12C (stereo not drawn)', 'activity change, negative = cytotoxicity', 'inactive');

Now turn to the next compound.
Q: So what does the record say about activity change, negative = cytotoxicity for CC(=O)OCC1OC(OC2COC(OC3COC(OC4C(OC5C(CO)OC(OC6CCC7(C)C(CCC8(C)C7CC=C7C9CC(C)(C)CCC9(C(=O)OC9OC(CO)C(O)C(O)C9OC9OCC(OC%10OCC(O)(CO)C%10O)C(O)C9O)C(O)CC78C)C6(C)C)C(O)C5O)OCC(O)C4O)C(O)C3O)C(O)C2O)C(OC(=O)/C=C/c2ccccc2)C(O)C1OC(C)=O (stereo not drawn) ?
Ans: -0.975% [at 6.55 µM] (inactive)

====

- Method: OV-KATE Cancer Cell Toxicity qHTS against the NCATS CANVASS Library (AID 1347345); note: % is set by controls: 0 for no effect and ±100 for the full control effect
- Assay context: OV-KATE cells viability, CellTiter-Glo luminescence, 72 h; series mostly up to 38.3 µM
Inconclusive results are not listed. The source made the active and inactive calls. Calls follow the shape of the dose curve; as a rule, active = well fitted cell-killing curve with a large enough effect; inconclusive = small, poorly fitted or top-dose-only effect; inactive = flat fitted curve, though single readings scatter.
Property: outcome

INSERT INTO assay_data (molecule, property, recorded_value) VALUES
  ('C/C(=C\CC/C(C)=C/CC[C@]1(C)CCc2cc(O)cc(C)c2O1)CC/C=C(\C)C(=O)O', 'outcome', 'inactive'),
  ('CC(C)c1ccc2c(c1)CCC1[C@](C)(C(=O)O)CCC[C@]21C (some centres undefined)', 'outcome', 'inactive'),
  ('O=C(/C=C/C=C/c1ccc2c(c1)OCO2)N1CCCCC1', 'outcome', 'inactive'),
  ('CC(=O)O[C@H]1C[C@@]2(C)[C@@H](CC[C@H]3[C@@]4(C)C=CC(=O)[C@@H](C)[C@@H]4[C@H](OC(C)=O)C(=O)[C@@]32C)/C1=C(\CCC=C(C)C)C(=O)O', 'outcome', 'inactive');

====

- Method: Primary fluorescence-based thiol-reactive (MSTI) qHTS assay for identification of artifact compounds. (AID 1845221); note: nearly all actives have a fitted effect of over 65% in size; note: potency is the fitted concentration of half-maximal effect
- Assay context: MSTI thiol-reactivity probe, 1 h; series mostly up to 53.8 µM
Records with an inconclusive call do not appear. Active and inactive are the calls of the source. Calls come from the whole dose curve; as a rule, active = well fitted inhibition curve with a large enough effect; inconclusive = small, poorly fitted or top-dose-only effect; inactive = no such curve, though single readings can be large or run the other way.
Property: Potency

INSERT INTO measurements (compound, recorded_value) VALUES
  ('C=C1C(=O)OC[C@H]2C(C(=O)O)=CC3CC(C)(C)C[C@@]132 (stereo partly drawn)', '21.2 µM (active)'),
  ('CC(=O)N[C@H](Cc1c[nH]c2ccccc12)C(=O)OCc1cc(C(F)(F)F)cc(C(F)(F)F)c1', 'inactive'),
  ('CC(=O)OC1CC(=O)C2(C)C3CC4=C(OC(C)CC4=O)OC3(C)CCC2C1(C)C (stereo not drawn)', '11.6 µM (active)'),
  ('C/C=C(/C)C(=O)O[C@@H]1C[C@@H](OC(=O)/C(C)=C\C)[C@@]2(C)C3C(=O)C=C(C)C2C3C1(C)C', 'inactive'),
  ('C/C(=C\CC/C(C)=C/CC[C@]1(C)CCc2cc(O)cc(C)c2O1)CC/C=C(\C)C(=O)O', '4.62 µM (active)');

Q: May I ask what Potency has been recorded for CC(O)C1CCC2C3CCC4CC(OC5OC(C(=O)O)C(O)C(O)C5O)CCC4(C)C3CCC12C (stereo not drawn) ?
Ans: inactive

Q: Same for C=CC1(C)C=C2CC[C@H]3[C@@](C)(C(=O)O)CCC[C@]3(C)C2CC1 (stereo partly drawn)
Ans: inactive

Q: Moving on to CC/C=C/C=C/C1(C)OC(CC(CO)OC)=CC1=O (stereo not drawn)
Ans: inactive

Q: Continue with CC(CC(C)O[C@@H]1O[C@H](CO)[C@@H](O)[C@H](O)[C@H]1O)OC(=O)/C=C/c1ccc(O)cc1 (stereo partly drawn)
Ans: 4.62 µM (active)
